Data credit: patent US20220177587A1

- ASSAY_TARGET: huPD-L1 (Homo sapiens, UniProt Q9NZQ7)
- Sequence (Q9NZQ7 19-290): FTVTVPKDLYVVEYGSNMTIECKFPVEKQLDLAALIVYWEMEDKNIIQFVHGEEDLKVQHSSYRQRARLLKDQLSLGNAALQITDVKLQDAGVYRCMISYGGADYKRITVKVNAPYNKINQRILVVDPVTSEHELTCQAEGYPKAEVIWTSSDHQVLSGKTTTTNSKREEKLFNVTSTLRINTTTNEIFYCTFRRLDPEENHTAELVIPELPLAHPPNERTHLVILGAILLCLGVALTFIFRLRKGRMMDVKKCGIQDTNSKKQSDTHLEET
- EXPERIMENT_NOTES: Flow binding to CHO cells stably expressing PD-L1
- Parameters: huCTLA4 and huPD-L1, full-length mammalian surface expression constructs were generated; expressed in transfected cells; host or cells: CHO cells, lentiviral transduction, sorted to >98% purity
- CONDITION_DETAILS: Table E19; CHO cells stably expressing PD-L1; 33.3 nM
RECORDED_ENDPOINT: PD-L1 MFI at 33.3 nM

| MOLECULE | RESULT |
| --- | --- |
| M47V (protein) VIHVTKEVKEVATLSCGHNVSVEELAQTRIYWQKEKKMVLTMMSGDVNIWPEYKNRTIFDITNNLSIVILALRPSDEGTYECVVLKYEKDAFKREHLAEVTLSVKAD | 2317 |
| E35D/M47V (protein) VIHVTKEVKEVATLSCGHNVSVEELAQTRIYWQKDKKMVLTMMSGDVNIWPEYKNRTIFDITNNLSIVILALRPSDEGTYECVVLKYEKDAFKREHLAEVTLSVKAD | 6796 |
| N48K/V68M (protein) VIHVTKEVKEVATLSCGHNVSVEELAQTRIYWQKEKKMVLTMMSGDMKIWPEYKNRTIFDITNNLSIMILALRPSDEGTYECVVLKYEKDAFKREHLAEVTLSVKAD | 754 |
| E35D/M47V/V68M/L85Q/K89N (protein) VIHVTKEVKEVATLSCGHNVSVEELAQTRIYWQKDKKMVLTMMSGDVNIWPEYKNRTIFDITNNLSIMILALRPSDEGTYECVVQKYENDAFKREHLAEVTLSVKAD | 12085 |
| K89N (protein) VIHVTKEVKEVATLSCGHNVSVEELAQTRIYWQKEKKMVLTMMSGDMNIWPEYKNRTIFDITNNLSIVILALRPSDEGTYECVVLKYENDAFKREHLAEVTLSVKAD | 52.8 |
| E35D/M47L/L85Q: variant CD80 IgV-Fc, IgV SEQ ID NO:418 (protein) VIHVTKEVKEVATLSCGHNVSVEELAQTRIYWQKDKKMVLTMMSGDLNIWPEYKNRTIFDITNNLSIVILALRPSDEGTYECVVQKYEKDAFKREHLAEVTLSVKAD | 6097 |
| E35D/D46V/M47V/V68M/K89N (protein) VIHVTKEVKEVATLSCGHNVSVEELAQTRIYWQKDKKMVLTMMSGVVNIWPEYKNRTIFDITNNLSIMILALRPSDEGTYECVVLKYENDAFKREHLAEVTLSVKAD | 21603 |
| N48K/V68M/K89N (protein) VIHVTKEVKEVATLSCGHNVSVEELAQTRIYWQKEKKMVLTMMSGDMKIWPEYKNRTIFDITNNLSIMILALRPSDEGTYECVVLKYENDAFKREHLAEVTLSVKAD | 11464 |
